Target: recombinant human ACC2 (Homo sapiens (Human), UniProt O00763)
Sequence (O00763 27-2458): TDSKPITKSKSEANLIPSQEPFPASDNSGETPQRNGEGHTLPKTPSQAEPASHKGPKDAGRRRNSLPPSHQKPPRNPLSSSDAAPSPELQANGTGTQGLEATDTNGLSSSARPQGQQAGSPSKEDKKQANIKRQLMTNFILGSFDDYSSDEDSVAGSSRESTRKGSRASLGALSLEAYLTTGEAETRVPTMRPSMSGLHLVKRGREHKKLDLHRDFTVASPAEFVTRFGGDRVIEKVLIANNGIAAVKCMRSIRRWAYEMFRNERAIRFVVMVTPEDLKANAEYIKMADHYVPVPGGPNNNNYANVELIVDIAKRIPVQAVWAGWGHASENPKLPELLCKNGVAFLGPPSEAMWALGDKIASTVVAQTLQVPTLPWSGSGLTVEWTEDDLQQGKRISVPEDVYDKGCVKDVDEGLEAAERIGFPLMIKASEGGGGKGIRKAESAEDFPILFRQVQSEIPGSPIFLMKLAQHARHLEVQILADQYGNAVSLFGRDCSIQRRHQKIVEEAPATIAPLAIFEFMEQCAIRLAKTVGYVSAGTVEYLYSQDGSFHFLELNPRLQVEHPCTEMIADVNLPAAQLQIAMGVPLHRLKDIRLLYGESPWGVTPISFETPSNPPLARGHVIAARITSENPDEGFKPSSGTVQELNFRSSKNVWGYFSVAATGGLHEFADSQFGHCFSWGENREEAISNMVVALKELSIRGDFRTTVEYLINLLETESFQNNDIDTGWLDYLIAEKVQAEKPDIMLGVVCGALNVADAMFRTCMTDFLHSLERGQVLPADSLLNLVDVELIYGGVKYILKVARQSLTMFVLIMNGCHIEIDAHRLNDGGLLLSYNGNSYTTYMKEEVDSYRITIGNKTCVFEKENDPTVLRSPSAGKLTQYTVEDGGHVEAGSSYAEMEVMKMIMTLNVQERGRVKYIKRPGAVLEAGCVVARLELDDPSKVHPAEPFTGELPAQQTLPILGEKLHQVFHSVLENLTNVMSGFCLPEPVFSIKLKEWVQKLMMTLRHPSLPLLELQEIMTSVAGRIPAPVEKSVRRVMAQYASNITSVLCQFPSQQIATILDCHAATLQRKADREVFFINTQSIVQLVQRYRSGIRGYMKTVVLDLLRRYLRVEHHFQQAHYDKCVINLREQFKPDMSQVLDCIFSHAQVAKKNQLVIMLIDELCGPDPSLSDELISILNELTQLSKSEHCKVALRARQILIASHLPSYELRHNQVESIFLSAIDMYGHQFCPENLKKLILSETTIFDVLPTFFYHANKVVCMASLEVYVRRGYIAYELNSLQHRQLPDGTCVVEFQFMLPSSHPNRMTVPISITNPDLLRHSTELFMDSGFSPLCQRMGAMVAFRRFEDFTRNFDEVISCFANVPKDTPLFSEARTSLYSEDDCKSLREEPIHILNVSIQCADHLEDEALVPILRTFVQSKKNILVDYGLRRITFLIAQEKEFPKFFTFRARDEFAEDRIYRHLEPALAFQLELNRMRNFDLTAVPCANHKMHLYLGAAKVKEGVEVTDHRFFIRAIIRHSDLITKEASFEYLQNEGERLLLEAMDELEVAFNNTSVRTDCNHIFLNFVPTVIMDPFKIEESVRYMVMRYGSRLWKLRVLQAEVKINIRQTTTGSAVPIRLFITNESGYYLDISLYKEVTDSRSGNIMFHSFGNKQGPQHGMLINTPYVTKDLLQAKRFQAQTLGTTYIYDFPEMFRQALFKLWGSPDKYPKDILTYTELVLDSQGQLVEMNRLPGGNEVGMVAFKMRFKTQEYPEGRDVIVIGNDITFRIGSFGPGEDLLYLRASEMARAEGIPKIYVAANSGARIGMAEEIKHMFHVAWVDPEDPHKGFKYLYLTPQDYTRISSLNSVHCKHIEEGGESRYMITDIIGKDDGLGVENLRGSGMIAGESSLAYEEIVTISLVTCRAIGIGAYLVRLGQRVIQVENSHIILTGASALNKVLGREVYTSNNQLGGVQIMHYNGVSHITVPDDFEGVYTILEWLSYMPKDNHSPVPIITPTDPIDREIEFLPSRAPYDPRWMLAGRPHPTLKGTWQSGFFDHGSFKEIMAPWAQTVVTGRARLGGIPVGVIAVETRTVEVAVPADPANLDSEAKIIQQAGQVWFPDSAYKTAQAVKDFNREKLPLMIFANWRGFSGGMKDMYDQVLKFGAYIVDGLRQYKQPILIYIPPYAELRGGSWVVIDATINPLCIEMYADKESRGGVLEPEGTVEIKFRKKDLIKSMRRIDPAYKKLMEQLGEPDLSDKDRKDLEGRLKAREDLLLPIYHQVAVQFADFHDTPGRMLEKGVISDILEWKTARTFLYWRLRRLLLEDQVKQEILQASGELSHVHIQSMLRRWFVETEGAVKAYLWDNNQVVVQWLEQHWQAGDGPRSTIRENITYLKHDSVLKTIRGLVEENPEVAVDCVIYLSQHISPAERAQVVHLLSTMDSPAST
Experiment: Measurement of inhibitory activity on human ACC2 (MALDI-TOF MS, acetyl CoA to malonyl CoA conversion)
Format: biochemical
Conditions: Tables 155-159
Definition: the class of an entry is the range in I = under 100 nM, II = from 100 nM up to 400 nM, III = 400 nM and over that contains its IC50.

Query: Which bin should I file C[C@@H](CO[C@H]1CC[C@H](Oc2ncc3nc(OC4CC4)sc3c2F)CC1)NC(=O)CO under?
Response: II

Query: // same read-out, input: CC(=O)N[C@@H](C)CO[C@H]1C[C@H](COc2nccc(N3CCC(F)CC3)c2Cl)C1
Response: II

Query: // same read-out, input: CC(=O)N[C@@H](C)CO[C@H]1C[C@H](COc2nccc(OCC3COC3)c2Cl)C1
Response: III

Query: // same read-out, input: CC(=O)N[C@@H](C)CO[C@H]1C[C@H](COc2nccc3cc(F)ccc23)C1
Response: II

Query: // same read-out, input: CC(=O)N[C@@H](C)CO[C@H]1C[C@H](COc2ccc3nc(C(C)(C)O)sc3c2F)C1
Response: II

Query: // same read-out, input: CC(=O)N[C@@H](C)CO[C@H]1C[C@H](COc2ccc3nc(N4CCC(C#N)C4)sc3n2)C1 (stereo partly drawn)
Response: III

Query: // same read-out, input: CCOc1nc2ccc(O[C@H]3CC[C@H](OC[C@H](C)NC(C)=O)CC3)cc2s1
Response: I

Query: // same read-out, input: CC(=O)N[C@@H](C)CO[C@H]1C[C@H](COc2ncnc(NC(=O)C3CCCCC3)c2Cl)C1
Response: II

Query: // same read-out, input: CC(=O)N[C@@H](C)CO[C@H]1C[C@H](COc2ccc3nc(N4CC(F)(F)C4)sc3n2)C1
Response: I

Query: // same read-out, input: CCOc1ncc2nc(O[C@H]3CC[C@H](OC[C@H](C)NC(C)=O)CC3)n(C)c2c1F
Response: I

Query: // same read-out, input: CC(=O)N[C@@H](C)CO[C@H]1CC[C@H](Oc2nc3cnc(OCC(F)F)c(Cl)c3n2C)CC1
Response: I

Query: // same read-out, input: CC(=O)N[C@@H](C)CO[C@H]1CC[C@H](Oc2nc3c(C(N)=O)cc(OC4CC4)c(F)c3n2C)CC1
Response: III

Query: // same read-out, input: CC(=O)N[C@@H](C)CO[C@H]1C[C@H](COc2ccc3nc(OCC(F)F)n(C)c3n2)C1
Response: II

Query: // same read-out, input: CC(=O)N[C@@H](C)CO[C@H]1C[C@H](COc2ncnc3c2ccn3Cc2ccccn2)C1
Response: III

###

Target: recombinant human ACC2 (Homo sapiens (Human), UniProt O00763)
Assay: Measurement of inhibitory activity on human ACC2 (MALDI-TOF MS, acetyl CoA to malonyl CoA conversion)
Type: biochemical
Settings: Tables 155-159
measurementKind: pIC50
// scale note: pIC50 = -log10(conc_M); give the bare number

Query: Field request: pIC50 | item: CC(=O)N[C@@H](C)CO[C@H]1CC[C@H](Oc2nc3cnc(OC4CC4)c(F)c3n2C)CC1
Response: 8.10

Query: // same read-out, input: CC(=O)N[C@@H](C)CO[C@H]1C[C@H](Cn2ccc3c(OCc4ccccc4)ncnc32)C1
Response: 6.22

Query: // same read-out, input: CC(=O)N[C@@H](C)CO[C@H]1CC[C@H](Oc2nc3cnc(OCC4CC4)c(Cl)c3n2C)CC1
Response: 8.30

Query: // same read-out, input: CC(=O)N[C@@H](C)CO[C@H]1CC[C@H](Oc2nc3ccc(OCC(F)F)c(F)c3n2C)CC1
Response: 7.89

Query: // same read-out, input: CC(=O)N[C@@H](C)CO[C@H]1C[C@H](COc2ccc3nc(N4CC[C@@H](F)C4)sc3n2)C1
Response: 7.29

Query: // same read-out, input: CC(=O)N[C@@H](C)CC[C@H]1CC[C@H](Oc2nc3c(F)cc(OCC(F)F)c(F)c3n2C)CO1
Response: 8.15

Query: // same read-out, input: CC(=O)N[C@@H](C)CO[C@H]1CC[C@H](Oc2nc3cnc(OC4(C)CC4)c(Cl)c3n2C)CC1
Response: 7.96
